Assay: blood concentration of TPPU by LC-MS
Format: in vivo
Settings: mouse, whole blood; mice, 24 h after last oral administration, after 15 days at 1 mg/kg/day
READOUT_NAME: concentration at 24 h

QUERY: # get_value(readout='concentration at 24 h', item= CCC(=O)N1CCC(NC(=O)Nc2ccc(OC(F)(F)F)cc2)CC1 [TPPU] )
RESULT: > 8000 ng/mL
